The measured values listed here are drawn from PubChem BioAssay (NCATS).

test: Viability qHTS for spleen associated tyrosine kinase inhibitor (SYKi) naive MV4-11 cells (AID 1963823); details: MV4-11 AML viability, CellTiter-Glo luminescence, 72 h; series mostly up to 45 µM; also: nearly all actives have a fitted effect of over 40% in size
Inconclusive results are not listed. Activity calls are given as the source filed them. Calls follow the shape of the dose curve; as a rule, active = well fitted cell-killing curve with a large enough effect; inconclusive = small, poorly fitted or top-dose-only effect, or effect the other way; inactive = no such curve, though single readings can be large or run the other way.
Can you answer with just one of these options? active, inactive

Query: Per the records of this test, what outcome belongs to CCOC(=O)c1ccc(N(C)c2csc(-c3ccccc3)n2)cc1 ?
Response: inactive

Query: For Cc1ccc(C(=O)N(CCCN)C(c2oc3cc(Cl)ccc3c(=O)c2Cc2ccccc2)C(C)C)cc1 (stereo not given) then?
Response: inactive

Query: Next compound up: N#C/C(=C1/Nc2ccccc2S1)c1ccnc(OCc2ccc(CN3CCOCC3)cc2)n1
Response: active

Query: Moving on to the next compound: NS(=O)(=O)c1cccc2c1C(=O)c1cccc(O)c1C2=O
Response: active

Query: // query: OC1C(O)C(O)C(O)C(O)C1O (stereo not given)
Response: inactive

Query: Thanks! And CC1(C)C2CCC1(C)C(OC(=O)C(O)(CC(=O)O)CC(=O)O)C2 (stereo not given) ?
Response: inactive

Query: Ok, now COc1ccc(CNCc2cccc3ccccc23)cc1
Response: inactive

Query: Same lookup for CC(=O)c1c(O)cc2cccc3c2c1CC(C)(O)O3 (stereo not given) , please.
Response: inactive

Query: Could you do the same for O=C1C(Cc2ccc(O)cc2)N2C(=O)CCN(C(=O)NCc3ccccc3)C2CN1Cc1cccc2ccccc12 (stereo not given) , please?
Response: active

Query: Lookup COc1ccc(S(=O)(=O)Nc2cc(-c3c(O)ccc4ccccc34)c(O)c3ccccc23)cc1
Response: active

Query: Try this compound next: CCN(CC)CCOc1ccc(Nc2ncc3cc(-c4c(Cl)cccc4Cl)c(=O)n(C)c3n2)cc1
Response: active

Query: Same thing, different compound: COc1ccc(CNC(=O)c2sc3nc(C)cc(C)c3c2N)cc1
Response: inactive

Query: Repeat for the following compound: CCOc1cc(NC(C)=O)ccc1C(=O)OC
Response: inactive

Query: Similarly, Nc1cc(-c2ccncc2)c[nH]c1=O ?
Response: inactive

Query: Entry to check: Cc1cnc(NC(=O)C2=C(O)c3ccccc3S(=O)(=O)N2C)s1
Response: inactive

Query: Please answer likewise for Cc1cc(C)c(S(=O)(=O)N(Cc2ccc(-c3cccc(S(C)(=O)=O)c3)cc2)Cc2ccc(C(F)(F)F)o2)c(C)c1
Response: inactive

Query: What about O=c1[nH]c2ccccc2c(=O)n1CCCl ?
Response: inactive

Query: Param item: Cc1cc(NC(=O)c2cccc(NC(=O)/C=C/CN(C)C)c2)ccc1Nc1nccc(-c2cccnc2)n1
Response: active

Query: Next compound: COc1cc2c(cc1NS(=O)(=O)c1ccc(Br)cc1C)n(C)c(=O)n2C
Response: active
